Data provenance is paper PMC2597415.

- Substrate: O=C(CO)[C@H](O)[C@H](O)COP(=O)(O)O
- assay.remarks: coupled-enzyme spectrophotometric assay of RPE activity
- Type: biochemical, Escherichia coli
- reported.conditions: Co2+ enzyme
We begin with a simple list: items and their reported kcat.
Record the result as number plus unit.

# annotated cases, reported kcat shown
[[record]]
protein = "ALSE (D-allulose 6-phosphate 3-epimerase) (Escherichia coli K-12) (protein) MKISPSLMCMDLLKFKEQIEFIDSHADYFHIDIMDGHFVPNLTLSPFFVSQVKKLATKPLDCHLMVTRPQDYIAQLARAGADFITLHPETINGQAFRLIDEIRRHDMKVGLILNPETPVEAMKYYIHKADKITVMTVDPGFAGQPFIPEMLDKLAELKAWREREGLEYEIEVDGSCNQATYEKLMAAGADVFIVGTSGLFNHAENIDEAWRIMTAQILAAKSEVQPHAKTA"
endpoint_result = "2 s⁻¹"

[[record]]
protein = "ALSE (D-allulose 6-phosphate 3-epimerase) (Escherichia coli K-12; DEL198-198) (protein) MKISPSLMCMDLLKFKEQIEFIDSHADYFHIDIMDGHFVPNLTLSPFFVSQVKKLATKPLDCHLMVTRPQDYIAQLARAGADFITLHPETINGQAFRLIDEIRRHDMKVGLILNPETPVEAMKYYIHKADKITVMTVDPGFAGQPFIPEMLDKLAELKAWREREGLEYEIEVDGSCNQATYEKLMAAGADVFIVGTSLFNHAENIDEAWRIMTAQILAAKSEVQPHAKTA"
endpoint_result = "440 s⁻¹"

[[record]]
protein = "ALSE (D-allulose 6-phosphate 3-epimerase) (Escherichia coli K-12; DEL196-196) (protein) MKISPSLMCMDLLKFKEQIEFIDSHADYFHIDIMDGHFVPNLTLSPFFVSQVKKLATKPLDCHLMVTRPQDYIAQLARAGADFITLHPETINGQAFRLIDEIRRHDMKVGLILNPETPVEAMKYYIHKADKITVMTVDPGFAGQPFIPEMLDKLAELKAWREREGLEYEIEVDGSCNQATYEKLMAAGADVFIVGSGLFNHAENIDEAWRIMTAQILAAKSEVQPHAKTA"
endpoint_result = "130 s⁻¹"


API: the following record is the query input.
Can you look up the measured kcat of ALSE (D-allulose 6-phosphate 3-epimerase) (Escherichia coli K-12; DEL197-197) (protein) MKISPSLMCMDLLKFKEQIEFIDSHADYFHIDIMDGHFVPNLTLSPFFVSQVKKLATKPLDCHLMVTRPQDYIAQLARAGADFITLHPETINGQAFRLIDEIRRHDMKVGLILNPETPVEAMKYYIHKADKITVMTVDPGFAGQPFIPEMLDKLAELKAWREREGLEYEIEVDGSCNQATYEKLMAAGADVFIVGTGLFNHAENIDEAWRIMTAQILAAKSEVQPHAKTA for me?
240 s⁻¹
